tested on: GBM0308 non-CSCs; experiment: Dose-response killing of GBM non-CSCs (PI/Hoechst, Celigo cytometer); assay type: cell-based; details: Homo sapiens, 72 h, read-out: Non-CSC Max. observed efficacy (% dead cells), Table 7; cell line not given
# if measured Emax < 20%: fulfilled  # else: not fulfilled

Recorded results for 5 compounds are shown here.
compound	assigned_label
COc1cc(OC)c2c(c1)O[C@@]1(c3ccc(Br)cc3)[C@H](c3ccccc3)[C@@H](C(=O)NS(=O)(=O)N3CCCC3)[C@@H](O)[C@@]21O [ZW-12-37]	not fulfilled
COc1cc(OC)c2c(c1)O[C@@]1(c3ccc(Br)cc3)[C@H](c3ccccc3)[C@@H](C(=O)NS(=O)(=O)N(C)C(C)C)[C@@H](O)[C@@]21O [ZW-12-34]	fulfilled
COc1cc(OC)c2c(c1)O[C@@]1(c3ccc(C(F)(F)F)cc3)[C@H](c3ccccc3)[C@@H](C(=O)NS(=O)(=O)N(C)C)[C@@H](O)[C@@]21O [ZW-12-29]	not fulfilled
COc1cc(OC)c2c(c1)O[C@@]1(c3ccc(Br)cc3)[C@H](c3ccccc3)[C@@H](C(=O)NS(=O)(=O)N3CC(C)C3)[C@@H](O)[C@@]21O [ZW-12-36]	fulfilled
COc1cc(OC)c2c(c1)O[C@@]1(c3ccc(C#N)cc3)[C@H](c3ccccc3)[C@@H](C(=O)NS(=O)(=O)N(C)C)[C@@H](O)[C@@]21O [ZW-12-30]	not fulfilled

Does the reported Emax of the following compound sit strictly below 20%? COc1cc(OC)c2c(c1)O[C@@]1(c3ccc(Cl)cc3)[C@H](c3ccccc3)[C@@H](C(=O)NS(=O)(=O)N(C)C)[C@@H](O)[C@@]21O [ZW-12-31]
not fulfilled

Please state whether Emax is below 20% for COc1cc(OC)c2c(c1)O[C@@]1(c3ccc(Br)cc3)[C@H](c3ccccc3)[C@@H](C(=O)NS(=O)(=O)N3CCOCC3)[C@@H](O)[C@@]21O [ZW-12-38]
fulfilled

Identify whether the compound CCN(CC)S(=O)(=O)NC(=O)[C@H]1[C@@H](O)[C@@]2(O)c3c(OC)cc(OC)cc3O[C@@]2(c2ccc(Br)cc2)[C@@H]1c1ccccc1 [ZW-12-35] records Emax below 20%.
fulfilled
